- tested_system: rat VEGF-R2 kinase domain (Rattus norvegicus)
- Construct: amino acids 786-1343 of the rat VEGF-R2 kinase domain; polyhistidine (N)
- experiment_description: VEGF-R2 Screening Assay
- Type: biochemical
- measurement_setup: > means no observed 50% inhibition at the indicated test concentration; ~ means approximately 50% inhibition at that concentration; read-out: IC50 VEGF-R2
pIC50: −log10 of the molar value.
readout_name: pIC50

Solved cases below.
{"compound": "CON=Cc1c(N)ncnc1Oc1ccc(NC(=O)Nc2ccccc2OC)c(Cl)c1 [Cpd 58]", "pIC50": 8.60}
{"compound": "CON=Cc1c(N)ncnc1Oc1ccc(NC(=O)NC2CCCCC2)c(Cl)c1 [Cpd 65]", "pIC50": 8.19}
{"compound": "CON=Cc1c(N)ncnc1Oc1ccc(CC(=O)Nc2ccc(C)cc2)cc1 [Cpd 99]", "pIC50": 8.10}

[P] CNC(=O)n1c(C)cc2cc(Oc3ncnc(N)c3C=NOC)ccc21 [Cpd 49]
[Q] CNC(=O)Nc1ccc(Oc2ncnc(N)c2C=NOC)cc1 [Cpd 68]
[in] Hi there! Just curious which has the higher pIC50 between P and Q . Refer to your chosen item by its label in the answer.
[out] P

----------
- tested_system: murine Aurora-A (Mus musculus, UniProt P97477)
- Construct: replaced with the full length protein encoding the murine Aurora-A; made in house; host or cells: sf9 insect cells
- experiment_description: Aurora-A Screening Assay
- Assay type: biochemical
pIC50: −log10 of the molar value.
Quick reference for pIC50 among some compounds

Reference set, count: 5
{"smiles_str": "CO/N=C/c1c(N)ncnc1Oc1ccc2[nH]cc(CCNC(C)=O)c2c1", "pIC50": "< 4.00"}
{"smiles_str": "COCCCON=Cc1c(N)ncnc1Oc1ccc2[nH]c(C)cc2c1F", "pIC50": "< 5.00"}
{"smiles_str": "CON=Cc1c(N)ncnc1Oc1ccc(OC(=O)Nc2cccc(Cl)c2)cc1", "pIC50": "< 4.00"}
{"smiles_str": "CON=Cc1c(N)ncnc1Oc1ccc(NC(=O)Nc2ccc(F)cc2F)c(Cl)c1", "pIC50": "< 4.00"}
{"smiles_str": "CCON=Cc1c(N)ncnc1Oc1ccc2[nH]c(C)cc2c1F", "pIC50": "< 4.00"}

[in] So what's the measured pIC50 for this one? `CON=Cc1c(N)ncnc1Oc1ccc(NC(=O)Nc2nc(C)cs2)c(Cl)c1`
[out] < 4.00

[in] Requested read-out: pIC50. Entry: `CON=Cc1c(N)ncnc1Oc1ccc(NC(=O)Nc2ccncc2)c(Cl)c1`
[out] < 5.00

[in] Given the compound `CCCON=Cc1c(N)ncnc1Oc1ccc2[nH]c(C)cc2c1F` , what is its reported pIC50?
[out] < 4.00

[in] Report pIC50 for `CON=Cc1c(N)ncnc1Oc1ccc(NC(=O)OC)c(Cl)c1` please.
[out] < 4.00

[in] Recorded pIC50 of `CON=Cc1c(N)ncnc1Oc1ccc(NC(=O)Nc2cccc(C)c2)c(Cl)c1` , please.
[out] < 4.00

[in] Give the measured pIC50 of `CON=Cc1c(N)ncnc1Oc1ccc(NC(=O)Nc2ccccc2OC)c(Cl)c1` .
[out] < 4.00

[in] // lookup pIC50 for `CON=Cc1c(N)ncnc1Oc1ccc2cccnc2c1`
[out] < 4.00

[in] // returns reported pIC50 for input `CCNC(=O)Nc1ccc(Oc2ncnc(N)c2C=NOC)c(Cl)c1`
[out] < 5.00

[in] Need pIC50, item `CCCNC(=O)Nc1ccc(Oc2ncnc(N)c2C=NOC)cc1Cl`
[out] < 4.00

[in] Please report the recorded pIC50 for `CON=Cc1c(N)ncnc1Oc1ccc(NC(=O)Nc2nc(C)c(C)s2)c(Cl)c1` .
[out] < 4.00

----------
Recorded below: pIC50, system HER2 cytoplasmic domain (Homo sapiens).
Entry type: numeric. Quantity: pIC50, the -log10 of concentration in molar units.

[in] What value of pIC50 on HER2 cytoplasmic domain (Homo sapiens) does `CON=Cc1c(N)ncnc1Oc1ccc(NC(=O)Nc2ccccc2OC)c(Cl)c1` have?
[out] 5.77

[in] Enter reported pIC50 observed with HER2 cytoplasmic domain (Homo sapiens) for `Cc1cc2c(F)c(Oc3ncnc(N)c3C=NOCCCN3CCCC3)ccc2[nH]1`
Sequence (P04626 676-1255 limits assumed): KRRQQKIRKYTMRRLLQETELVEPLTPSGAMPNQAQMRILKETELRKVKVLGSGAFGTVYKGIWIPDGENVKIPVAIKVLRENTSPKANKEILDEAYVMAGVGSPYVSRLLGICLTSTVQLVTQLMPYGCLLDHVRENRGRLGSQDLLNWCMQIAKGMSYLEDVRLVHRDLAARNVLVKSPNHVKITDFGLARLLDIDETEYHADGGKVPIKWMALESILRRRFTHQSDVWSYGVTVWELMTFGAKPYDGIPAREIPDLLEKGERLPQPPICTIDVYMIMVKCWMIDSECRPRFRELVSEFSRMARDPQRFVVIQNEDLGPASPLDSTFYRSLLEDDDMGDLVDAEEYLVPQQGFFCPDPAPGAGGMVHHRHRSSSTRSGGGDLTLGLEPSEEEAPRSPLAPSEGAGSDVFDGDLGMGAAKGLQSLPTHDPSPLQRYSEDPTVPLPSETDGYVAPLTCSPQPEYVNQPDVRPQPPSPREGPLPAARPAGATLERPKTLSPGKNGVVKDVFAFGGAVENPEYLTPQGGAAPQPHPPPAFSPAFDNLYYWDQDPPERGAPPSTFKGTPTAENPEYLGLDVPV
[out] 5.83

----------
- Tested on: HCT-116 colon carcinoma
- experiment_description: Inhibition of in vitro cell proliferation (HCT116);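 also: cells exposed to compound for 24 h, then 14C-thymidine added for a further 24 h and its uptake into DNA counted by scintillation, DMSO-only wells as control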
- Assay type: cell-based, human
- measurement_setup: Homo sapiens, HCT-116, 14C-thymidine incorporation
readout_name: IC50

Known results for molecules:
{"smiles_str": "CCNC(=O)Nc1ccc(Oc2ncnc(N)c2C=NOC)cc1", "IC50": "> 10 µM"}
{"smiles_str": "Cc1cc2c(F)c(Oc3ncnc(N)c3C=NOCCCCN3CCCCC3)ccc2[nH]1", "IC50": "> 100 µM"}
{"smiles_str": "CON=Cc1c(N)ncnc1Oc1ccc(NC(=O)Nc2cccnc2)c(Cl)c1", "IC50": "4.67 µM"}
{"smiles_str": "CON=Cc1c(N)ncnc1Oc1ccc(NC(=O)Nc2ccccc2F)c(Cl)c1", "IC50": "> 10 µM"}
{"smiles_str": "CCCNC(=O)Nc1ccc(Oc2ncnc(N)c2C=NOC)cc1Cl", "IC50": "> 1 µM"}
{"smiles_str": "CON=Cc1c(N)ncnc1Oc1ccc2c(c1)cc(C)n2C(=O)NCCCCN1CCCC1", "IC50": "> 10 µM"}

[in] // query IC50 value for entry `CCNC(=O)Nc1ccc(Oc2ncnc(N)c2C=NOC)cc1C`
[out] > 100 µM

----------
- tested_system: rat VEGF-R2 kinase domain (Rattus norvegicus, UniProt O08775)
- Construct: amino acids 786-1343 of the rat VEGF-R2 kinase domain; polyhistidine (N)
- Sequence (O08775 786-1343): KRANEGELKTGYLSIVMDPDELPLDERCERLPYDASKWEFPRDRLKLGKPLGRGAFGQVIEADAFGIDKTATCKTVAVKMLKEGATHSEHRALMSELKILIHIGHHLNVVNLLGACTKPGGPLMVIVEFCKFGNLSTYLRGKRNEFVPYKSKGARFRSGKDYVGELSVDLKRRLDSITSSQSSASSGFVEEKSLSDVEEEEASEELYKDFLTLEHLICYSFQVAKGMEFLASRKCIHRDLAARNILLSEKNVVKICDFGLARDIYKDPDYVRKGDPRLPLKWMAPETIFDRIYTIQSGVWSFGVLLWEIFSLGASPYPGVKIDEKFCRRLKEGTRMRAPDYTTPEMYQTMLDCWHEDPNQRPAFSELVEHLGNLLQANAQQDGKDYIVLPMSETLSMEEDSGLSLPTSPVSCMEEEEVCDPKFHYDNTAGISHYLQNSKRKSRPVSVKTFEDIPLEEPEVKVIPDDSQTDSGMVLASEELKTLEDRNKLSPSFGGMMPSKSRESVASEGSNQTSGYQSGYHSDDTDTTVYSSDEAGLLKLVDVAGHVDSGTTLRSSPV
- experiment_description: VEGF-R2 Screening Assay
- Format: biochemical
- measurement_setup: > means no observed 50% inhibition at the indicated test concentration; ~ means approximately 50% inhibition at that concentration; read-out: IC50 VEGF-R2
pIC50: −log10 of the molar value.
readout_name: pIC50

{"molecule": "CCNC(=O)Nc1ccc(Oc2ncnc(N)c2C=NOC)c(Cl)c1", "pIC50": 6.75}
{"molecule": "CCNC(=O)Nc1ccc(Oc2ncnc(N)c2C=NOC)cc1", "pIC50": 6.85}
{"molecule": "CNC(=O)Nc1ccc(Oc2ncnc(N)c2C=NOC)cc1Cl", "pIC50": 7.60}

[a] CCNC(=O)Nc1ccc(Oc2ncnc(N)c2C=NOCCN2CCOCC2)cc1Cl
[b] Cc1cc2c(F)c(Oc3ncnc(N)c3/C=N/O)ccc2[nH]1
[c] CON=Cc1c(N)ncnc1Oc1ccc(NC(=O)Nc2ccc(OC)cc2)c(Cl)c1 [Cpd 63]
[in] I would appreciate it if you could sort these 3 molecules by pIC50, starting from the smallest number. Provide the labels, sequenced as the question asks.
[out] a, b, c

----------
- tested_system: murine Aurora-A (Mus musculus)
- Construct: replaced with the full length protein encoding the murine Aurora-A; made in house; host or cells: sf9 insect cells
- Sequence (P97477 1-395): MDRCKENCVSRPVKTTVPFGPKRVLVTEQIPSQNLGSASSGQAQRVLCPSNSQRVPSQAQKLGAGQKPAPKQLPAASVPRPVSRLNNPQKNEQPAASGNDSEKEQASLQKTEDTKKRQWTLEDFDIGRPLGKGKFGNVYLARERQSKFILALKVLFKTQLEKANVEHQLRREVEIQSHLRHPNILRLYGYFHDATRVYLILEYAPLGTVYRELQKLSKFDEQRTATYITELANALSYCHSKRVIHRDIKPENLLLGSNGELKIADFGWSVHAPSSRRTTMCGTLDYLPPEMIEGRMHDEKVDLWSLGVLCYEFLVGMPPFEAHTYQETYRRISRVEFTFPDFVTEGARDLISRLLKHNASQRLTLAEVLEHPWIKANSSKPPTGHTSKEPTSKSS
- experiment_description: Aurora-A Screening Assay
- Assay type: biochemical
pIC50: −log10 of the molar value.
readout_name: pIC50

Recorded pIC50, per entry:
{"compound": "Cc1cc2c(F)c(Oc3ncnc(N)c3C=NOCC3CC3)ccc2[nH]1 [Cpd 32]", "pIC50": "< 4.00"}
{"compound": "Cc1cc2c(F)c(Oc3ncnc(N)c3C=NOCCO)ccc2[nH]1 [Cpd 12]", "pIC50": "~4.00"}
{"compound": "CON=Cc1c(N)ncnc1Oc1ccc2c(c1)cc(C)n2C(=O)NCCCO [Cpd 40]", "pIC50": "< 4.00"}
{"compound": "CON=Cc1c(N)ncnc1Oc1ccc(CC(=O)Nc2cccc(F)c2)cc1 [Cpd 100]", "pIC50": "< 4.00"}
{"compound": "C=CCON=Cc1c(N)ncnc1Oc1ccc2[nH]c(C)cc2c1F [Cpd 31]", "pIC50": "< 4.00"}
{"compound": "CNC(=O)Nc1ccc(Oc2ncnc(N)c2C=NOC)c(Cl)c1 [Cpd 70]", "pIC50": "< 5.00"}

Below: the item to evaluate.
[in] I would be grateful if you could share the reported pIC50 for Cc1cc2c(F)c(Oc3ncnc(N)c3C=NOCCN3CCOCC3)ccc2[nH]1 [Cpd 14] .
[out] < 4.00
